Test system: human T-lymphocyte (CEM) cells
protocol_details: Cytostatic activity, CEM cell proliferation
Format: cell-based
measurement_conditions: mean ± SD of three experiments; highest concentration tested 250 µM; 3 days; read-out: Toxicity (IC50) CEM
Give measured pIC50 for each item. Keep answers brief.
Answers are plain numbers, as −log10 of the molar value.

compound="CNC(CC(C)C)C(=O)NC1C(=O)NC(CC(N)=O)C(=O)NC2C(=O)NC3C(=O)NC(C(=O)NC(C(=O)NCC(=O)Nc4ccc(C#CC5CCCC5)cc4)c4cc(O)cc(O)c4-c4cc3ccc4O)C(O)c3ccc(c(Cl)c3)Oc3cc2cc(c3OC2OC(CO)C(O)C(O)C2OC2CC(C)(N)C(O)C(C)O2)Oc2ccc(cc2Cl)C1O (stereo not drawn)" target_under_test="human T-lymphocyte (CEM) cells" value_observed=4.54

Okay, now this compound:
// field: pIC50; key: CNC(CC(C)C)C(=O)NC1C(=O)NC(CC(N)=O)C(=O)NC2C(=O)NC3C(=O)NC(C(=O)NC(C(=O)NCCCNC(=O)c4ccc5ccccc5n4)c4cc(O)cc(O)c4-c4cc3ccc4O)C(O)c3ccc(c(Cl)c3)Oc3cc2cc(c3OC2OC(CO)C(O)C(O)C2OC2CC(C)(N)C(O)C(C)O2)Oc2ccc(cc2Cl)C1O (stereo not drawn) ; value = 3.64
